Target: human PD-1 (Jurkat-PD-1 cells) / PE-labeled human PD-L1-Ig (Homo sapiens)
Construct: expressed in transfected cells; host or cells: Jurkat cell line over-expressing human PD-1
Sequence (Q15116 25-288): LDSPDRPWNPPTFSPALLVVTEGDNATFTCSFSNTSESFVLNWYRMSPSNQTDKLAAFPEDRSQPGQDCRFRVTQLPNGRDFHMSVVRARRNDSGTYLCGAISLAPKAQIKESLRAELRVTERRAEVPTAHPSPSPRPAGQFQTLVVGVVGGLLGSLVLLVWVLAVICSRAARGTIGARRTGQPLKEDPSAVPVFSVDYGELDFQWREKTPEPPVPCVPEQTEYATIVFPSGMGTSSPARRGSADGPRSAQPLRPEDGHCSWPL
Experiment: Jurkat-PD-1 Cell Binding High-Content Screening Assay (CBA); Jurkat hPD1-PDL1 assay
Conditions: Jurkat cell line over-expressing human PD-1; PE-labeled PD-L1-Ig 20 nM final; compound incubated 2 hours at 37° C.; read-out: Jurkat HPD1-PDL1 IC50
From the text: The ability of the compounds of formula (I) to bind to PD-1 was investigated using a Jurkat-PD-1 Cell Binding High-Content Screening Assay. Jurkat-PD-1 Cell Binding High-Content Screening Assay (CBA) Phycoerythrin (PE) was covalently linked to the Ig epitope tag of human PD-L1-Ig and fluorescently-labeled PD-L1-Ig was used for binding studies with a Jurkat cell line over-expressing human PD-1 (Jurkat-PD-1). […]
Positions of bridges follow the written chain, without caps; N, C: chain ends. Non-standard residues stand in square brackets, D forms with d. Residues, ends and D or L forms follow the SMILES beside them. Bip = N[C@@H](Cc1ccc(-c2ccccc2)cc1)C(=O)O; NMeF = CN[C@@H](Cc1ccccc1)C(=O)O; hArg = N=C(N)NCCCC[C@H](N)C(=O)O; NMeA = CN[C@@H](C)C(=O)O
property name: pIC50
# pIC50: negative log10 of molar concentration; output just the value

Fetch value of pIC50 on human PD-1 (Jurkat-PD-1 cells) / PE-labeled human PD-L1-Ig (Homo sapiens) for CC(C)C[C@@H]1NC(=O)[C@H](CCCCNC(=N)N)NC(=O)[C@H](Cc2ccccc2)N(C)C(=O)[C@H](C)N(C)C(=O)[C@H](CCCNC(=N)N)NC(=O)[C@H](Cc2ccc(-c3ccccc3)cc2)NC(=O)[C@H](C(C)C)NC(=O)[C@H](Cc2c[nH]c3ccccc23)NC(=O)[C@H](CC(=O)O)NC(=O)[C@H](Cc2ccc(O)cc2)NC(=O)[C@H](Cc2ccccc2)NC(=O)CSC[C@@H](C(=O)NCC(N)=O)NC(=O)[C@H](CO)NC(=O)[C@H](C(C)C)NC1=O [Example 1279] ({CH2CO}-FYDWV[Bip]R[NMeA][NMeF][hArg]LVSCG-NH2; thioether N-14) .
6.49

----------
Target: human PD-1 (Jurkat-PD-1 cells) / PE-labeled human PD-L1-Ig (Homo sapiens)
Construct: expressed in transfected cells; host or cells: Jurkat cell line over-expressing human PD-1
Assay: Jurkat-PD-1 Cell Binding High-Content Screening Assay (CBA); Jurkat hPD1-PDL1 assay
Details: Jurkat cell line over-expressing human PD-1; PE-labeled PD-L1-Ig 20 nM final; compound incubated 2 hours at 37° C.; read-out: Jurkat HPD1-PDL1 IC50
Positions of bridges follow the written chain, without caps; N, C: chain ends. Non-standard residues stand in square brackets, D forms with d. Residues, ends and D or L forms follow the SMILES beside them. Bip = N[C@@H](Cc1ccc(-c2ccccc2)cc1)C(=O)O; NMeF = CN[C@@H](Cc1ccccc1)C(=O)O; Tle = CC(C)(C)[C@H](N)C(=O)O; NMeA = CN[C@@H](C)C(=O)O; Orn = NCCC[C@H](N)C(=O)O; Dab = NCC[C@H](N)C(=O)O
property name: pIC50
# pIC50: negative log10 of molar concentration; output just the value

CC(C)C[C@@H]1NC(=O)[C@H](Cc2c[nH]c3ccccc23)NC(=O)[C@H](CC(=O)O)NC(=O)[C@H](Cc2ccc(O)cc2)NC(=O)[C@H](Cc2ccccc2)NC(=O)CSC[C@@H](C(=O)NCC(N)=O)NC(=O)[C@H](CO)NC(=O)[C@H](C(C)C)NC(=O)[C@H](CC(C)C)NC(=O)[C@H](CC(N)=O)NC(=O)[C@H](C)N(C)C(=O)[C@H](C)N(C)C(=O)[C@H](C(C)C)NC(=O)[C@H](Cc2ccc(-c3ccccc3)cc2)NC1=O [Example 1120] ({CH2CO}-FYDWL[Bip]V[NMeA][NMeA]NLVSCG-NH2; thioether N-14): 6.37
CC(C)C[C@@H]1NC(=O)[C@H](Cc2c[nH]c3ccccc23)NC(=O)[C@H](CC(=O)O)NC(=O)[C@H](Cc2ccc(O)cc2)NC(=O)[C@H](Cc2ccccc2)NC(=O)CSC[C@@H](C(=O)N[C@@H](C)C(N)=O)NC(=O)[C@H](CO)NC(=O)[C@H](C(C)C)NC(=O)[C@H](CC(C)C)NC(=O)[C@H](CCN)NC(=O)[C@H]2CCCN2C(=O)[C@H](CCCN)NC(=O)[C@H](C(C)C)NC(=O)[C@H](Cc2ccc(-c3ccccc3)cc2)NC1=O [Example 1421] ({CH2CO}-FYDWL[Bip]V[Orn][dP][Dab]LVSCA-NH2; thioether N-14): 7.22
CC(C)C[C@@H]1NC(=O)[C@H](CCCNC(=N)N)NC(=O)[C@H](Cc2ccccc2)N(C)C(=O)[C@H](C)N(C)C(=O)[C@H](CCCNC(=N)N)NC(=O)[C@H](Cc2ccc(-c3ccccc3)cc2)NC(=O)[C@H](C(C)C)NC(=O)[C@H](Cc2c[nH]c3ccccc23)NC(=O)[C@H](CC(=O)O)NC(=O)[C@H](Cc2ccc(O)cc2)NC(=O)[C@H](C)NC(=O)CSC[C@@H](C(=O)NCC(N)=O)NC(=O)[C@H](CO)NC(=O)[C@H](C(C)C)NC1=O [Example 1203] ({CH2CO}-AYDWV[Bip]R[NMeA][NMeF]RLVSCG-NH2; thioether N-14): 6.07

Please indicate pIC50 recorded for CC(C)C[C@@H]1NC(=O)[C@H](CCCNC(=N)N)NC(=O)[C@H](Cc2ccccc2)N(C)C(=O)[C@H](C)N(C)C(=O)[C@H](CCCNC(=N)N)NC(=O)[C@H](Cc2ccc(-c3ccccc3)cc2)NC(=O)[C@H](C(C)C)NC(=O)[C@H](Cc2c[nH]c3ccccc23)NC(=O)[C@H](CC(=O)O)NC(=O)[C@H](Cc2ccc(O)cc2)NC(=O)[C@H](Cc2ccccc2)NC(=O)CSC[C@@H](C(=O)NCC(N)=O)NC(=O)[C@H](CO)NC(=O)[C@H](C(C)(C)C)NC1=O [Example 1143] ({CH2CO}-FYDWV[Bip]R[NMeA][NMeF]RL[Tle]SCG-NH2; thioether N-14)
6.21

----------
Target: human PD-1 (Jurkat-PD-1 cells) / PE-labeled human PD-L1-Ig (Homo sapiens)
Construct: expressed in transfected cells; host or cells: Jurkat cell line over-expressing human PD-1
Test: Jurkat-PD-1 Cell Binding High-Content Screening Assay (CBA); Jurkat hPD1-PDL1 assay
Conditions: Jurkat cell line over-expressing human PD-1; PE-labeled PD-L1-Ig 20 nM final; compound incubated 2 hours at 37° C.; read-out: Jurkat HPD1-PDL1 IC50
Positions of bridges follow the written chain, without caps; N, C: chain ends. Non-standard residues stand in square brackets, D forms with d. Residues, ends and D or L forms follow the SMILES beside them. Bip = N[C@@H](Cc1ccc(-c2ccccc2)cc1)C(=O)O; 1Nal = N[C@@H](Cc1cccc2ccccc12)C(=O)O; NMeS = CN[C@@H](CO)C(=O)O; NMeA = CN[C@@H](C)C(=O)O; Dab = NCC[C@H](N)C(=O)O; Sar = CNCC(=O)O
Consider the following molecules and their measured pIC50 readings.
# pIC50: negative log10 of molar concentration; output just the value

Here are 3 molecules together with their reported answers.
CC(C)C[C@@H]1NC(=O)[C@H](Cc2cccc3ccccc23)NC(=O)[C@H](CC(=O)O)NC(=O)[C@H](Cc2ccc(O)cc2)NC(=O)[C@H](Cc2ccccc2)NC(=O)CSC[C@@H](C(=O)N[C@@H](C)C(N)=O)NC(=O)[C@H](CO)NC(=O)[C@H](C(C)C)NC(=O)[C@H](CC(C)C)NC(=O)[C@H](CC(N)=O)NC(=O)CN(C)C(=O)[C@H](C)N(C)C(=O)[C@H](C(C)C)NC(=O)[C@H](Cc2ccc(-c3ccccc3)cc2)NC1=O [Example 1116] ({CH2CO}-FYD[1Nal]L[Bip]V[NMeA][Sar]NLVSCA-NH2; thioether N-14): 6.40
CC(C)C[C@@H]1NC(=O)[C@H](Cc2c[nH]c3ccccc23)NC(=O)[C@H](CC(=O)O)NC(=O)[C@H](Cc2ccc(O)cc2)NC(=O)[C@H](Cc2ccccc2)NC(=O)CSC[C@@H](C(=O)N[C@@H](C)C(N)=O)NC(=O)[C@H]([C@@H](C)O)NC(=O)[C@H](C(C)C)NC(=O)[C@H](CC(C)C)NC(=O)[C@H](CCN)NC(=O)[C@H]2CCCN2C(=O)[C@H](C)N(C)C(=O)[C@H](C(C)C)NC(=O)[C@H](Cc2ccc(-c3ccccc3)cc2)NC1=O [Example 1398] ({CH2CO}-FYDWL[Bip]V[NMeA][dP][Dab]LVTCA-NH2; thioether N-14): 7.30
CC(C)C[C@@H]1NC(=O)[C@H](Cc2c[nH]c3ccccc23)NC(=O)[C@H](CC(=O)O)NC(=O)[C@H](Cc2ccc(O)cc2)NC(=O)[C@H](Cc2ccccc2)NC(=O)CSC[C@@H](C(=O)NCC(N)=O)NC(=O)[C@H](CO)NC(=O)[C@H](C(C)C)NC(=O)[C@H](CC(C)C)NC(=O)[C@H](CC(N)=O)NC(=O)[C@H](CO)N(C)C(=O)[C@H](C)N(C)C(=O)[C@H](C(C)C)NC(=O)[C@H](Cc2ccc(-c3ccccc3)cc2)NC1=O [Example 1084] ({CH2CO}-FYDWL[Bip]V[NMeA][NMeS]NLVSCG-NH2; thioether N-14): 6.62

Then there is this molecule:
Please indicate pIC50 recorded for CC(C)C[C@@H]1NC(=O)[C@H](Cc2c[nH]c3ccccc23)NC(=O)[C@H](CC(=O)O)NC(=O)[C@H](Cc2ccc(O)cc2)NC(=O)[C@H](Cc2ccccc2)NC(=O)CSC[C@@H](C(=O)NCC(N)=O)NC(=O)[C@H](CO)NC(=O)[C@H](C(C)C)NC(=O)[C@H](CC(C)C)NC(=O)[C@H](CC(N)=O)NC(=O)[C@H]2CCCN2C(=O)[C@H](CCN)NC(=O)[C@H](C(C)C)NC(=O)[C@H](Cc2ccc(-c3ccccc3)cc2)NC1=O [Example 1413] ({CH2CO}-FYDWL[Bip]V[Dab][dP]NLVSCG-NH2; thioether N-14)
7.05
